Here, each record is paired with measured growth inhibition data.
- assay explanation: NCI Yeast Anticancer Drug Screen. Data for the sgs1 mgt1 strain (AID 161);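 further: 0% = growth of cultures given vehicle only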
- measurement conditions: S. cerevisiae sgs1 mgt1 strain, stronger effect = higher value; at 50.0 µM unless noted
This is part of a sample that, as a whole, favours compounds with a hit. Of some 79,000 tested, about 15% had one in any assay.
Write the number in % without appending the unit.

# example entries with known answers
- compound: "COC(=O)C(=O)C1CCCC(C)(c2ccccc2)C1 (stereo not given)"
  value units: "%"
  growth inhibition: -5.05
- compound: "Cc1c(C)c(C(=O)Cc2ccccc2)c(C)c(C(=O)Cc2ccccc2)c1C"
  value units: "%"
  growth inhibition: -15.3
- compound: "Cc1cc(C(c2ccccc2)n2c3ccccc3c3ccccc32)cc(C)c1O (stereo not given)"
  value units: "%"
  growth inhibition: 8.45
- compound: "OCC12c3ccccc3C3c4ccccc4C1C32 (stereo not given)"
  value units: "%"
  growth inhibition: -4.05

# compound O=C(Nc1ccc(Cl)cc1)C(Cl)C(Cl)c1ccc(Cl)cc1 (stereo not given) ; its growth inhibition = -7.65

# compound CCOC(=O)C(Sc1ccc(C)cc1)C(Sc1ccc(C)cc1)C(=O)OCC (stereo not given) ; its growth inhibition = 11.2

* * *

- assay explanation: NCI Yeast Anticancer Drug Screen. Data for the mlh1 rad18 strain (AID 175)
- measurement conditions: S. cerevisiae mlh1 rad18 strain growth inhibition, stronger effect = higher value; at 50.0 µM unless noted
This is part of a sample that, as a whole, favours compounds with a hit. Of some 79,000 tested, about 15% had one in any assay.
Here, each record is paired with measured growth inhibition data.
Write the number in % without appending the unit.

# example entries with known answers
- molecule: "N#CC1CC2CC1C1OC21 (stereo unspecified)"
  recorded endpoint: "growth inhibition"
  value units: "%"
  measured value: -5.9
- molecule: "O=c1oc(-c2ccccc2CCl)nc2ccccc12"
  recorded endpoint: "growth inhibition"
  value units: "%"
  measured value: -5.9
- molecule: "Cc1ccc(C)n1-n1c(Cc2ccc(Cl)cc2)n[nH]c1=O"
  recorded endpoint: "growth inhibition"
  value units: "%"
  measured value: 13.1
- molecule: "O=C(c1ccc(Cl)cc1)c1ccccc1C(=O)c1ccc(Cl)cc1"
  recorded endpoint: "growth inhibition"
  value units: "%"
  measured value: 15.1
- molecule: "NC1CC(=O)c2ccccc21 (stereo unspecified)"
  recorded endpoint: "growth inhibition"
  value units: "%"
  measured value: -37.6

Consider the record given below.
# molecule Cc1ccc(-c2c(C#N)c(O)n(NS(=O)(=O)c3ccccc3)c(=O)c2C#N)cc1 ; its growth inhibition = -11.7

* * *

Here, each record is paired with measured growth inhibition data.
- assay explanation: NCI Yeast Anticancer Drug Screen. Data for the bub3 strain (AID 167)
- measurement conditions: S. cerevisiae bub3 mutant strain, stronger effect = higher value; at 50.0 µM unless noted
The panel holds about 79,000 compounds, 15% with a hit somewhere; the sample as a whole holds those more often.
Write the number in % without appending the unit.

- compound: "CCCCOC(=O)C1CN2C=CC=NC2=NC1(C(F)(F)F)C(F)(F)F (stereo unspecified)"
  growth inhibition, %: 3.35

# compound CCOC(=O)C(C)NC(=O)C(C)NC(=O)C(C)NC(=O)C(C)NC(=O)C(C)NC(=O)OCc1ccccc1 (stereo unspecified) ; its growth inhibition = 15.7

# compound O=C1CN(c2cccc(C(F)(F)F)c2)C(=O)CN1/N=C/c1ccc[nH]1 ; its growth inhibition = -7.1

# compound Cc1ccc(C(=O)/C=C/c2cccc3ccccc23)cc1 ; its growth inhibition = 9.95

# compound OC(c1ccccc1)c1ccc(C(O)c2ccccc2)cc1 (stereo unspecified) ; its growth inhibition = 5.5

# compound CC(C)=C1C2C(C13C(=O)OC(C)(C)OC3=O)C2(C)C (stereo unspecified) ; its growth inhibition = -21.6

// data source = PubChem BioAssay (NCI)
